The values you see were collected from paper PMC3954902.

// values below are reported Replicon assay on Huh5-2 SI (ratio of CC50 to EC50)
# Tested on: HCV genotype 1b subgenomic replicon in Huh-5-2 cells
# Experiment Description: Replicon assay on Huh5-2
# Type: cell-based, Hepatitis C virus
# Condition Context: Huh-5-2 cells

Please review the entries below; each comes with its answer.
INSERT INTO results (compound, readout_value) VALUES
  ('Nc1cc2c(=O)c(C(=O)O)cn(Cc3ccc(Cl)cc3)c2cc1N1CCN(c2ccccn2)CC1 [Compound 28]', '>28'),
  ('Nc1cc2c(=O)c(C(=O)OCc3ccc(Cl)cc3)cn(Cc3ccc(Cl)cc3)c2cc1N1CCN(c2nc3ccccc3s2)CC1 [Compound 9]', '>17'),
  ('Nc1cc2c(=O)c(C(=O)OCc3ccc(Cl)cc3)cn(Cc3ccc(Cl)cc3)c2cc1N1CCN(c2cccc(C(F)(F)F)c2)CC1 [Compound 10]', '>6');

Req: Fill blank: measured Replicon assay on Huh5-2 SI (ratio of CC50 to EC50) of the compound Cc1ccc(COC(=O)c2cn(Cc3ccc(C(F)(F)F)cc3F)c3cc(Cl)c(N)cc3c2=O)cc1 [Compound 4] is ____.
Resp: >2.5
